Could you please report measured phosphorylation enrichment for the items listed next?
Tested on: Fer (mouse)
protocolDescription: phosphorylation enrichment, bacterial display (enrichment ratio); higher = better substrate or ligand; peptides without Tyr show the background
Answer with a number only.

Input: Report value: phosphorylation enrichment, system: Fer (mouse), sequence: WHHTFYNEPRV [ACTA1_Y93_L96P]
Output: 0.582

Input: Report value: phosphorylation enrichment, system: Fer (mouse), sequence: IVGLLYRLLTE [SETX_Y1978]
Output: 0.561

Input: Report value: phosphorylation enrichment, system: Fer (mouse), sequence: AQINLYQDVML [ZNF806_Y33];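 further: frequency after pTyr selection over input frequency; kinase dosed for 20-30% of maximal phosphorylation in three min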
Output: 15.4

Input: Report value: phosphorylation enrichment, system: Fer (mouse), sequence: SNNFIYKTLGV [FAM83B_Y639_YF];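 further: frequency after pTyr selection over input frequency; kinase dosed for 20-30% of maximal phosphorylation in three min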
Output: 0.421

Input: Report value: phosphorylation enrichment, system: Fer (mouse), sequence: NVTGHYIPPFH [PPA2_Y59_S61P];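 further: frequency after pTyr selection over input frequency; kinase dosed for 20-30% of maximal phosphorylation in three min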
Output: 0.395

Input: Report value: phosphorylation enrichment, system: Fer (mouse), sequence: QRMGTYGVRAA [ICAM2_Y260];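 further: 11-residue human phosphosite peptides and single-mutation variants displayed on the E. coli surface, counted by deep sequencing, each peptide's frequency after selection divided by its frequency in the unselected input library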;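 further: frequency after pTyr selection over input frequency; kinase dosed for 20-30% of maximal phosphorylation in three min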
Output: 0.852
